Cited source: patent US20250059164A1

- Target System: IRAK4 (Homo sapiens)
- Construct: endogenous in cells; host or cells: OCI-LY10
- Sequence (Q9NWZ3 whole entry): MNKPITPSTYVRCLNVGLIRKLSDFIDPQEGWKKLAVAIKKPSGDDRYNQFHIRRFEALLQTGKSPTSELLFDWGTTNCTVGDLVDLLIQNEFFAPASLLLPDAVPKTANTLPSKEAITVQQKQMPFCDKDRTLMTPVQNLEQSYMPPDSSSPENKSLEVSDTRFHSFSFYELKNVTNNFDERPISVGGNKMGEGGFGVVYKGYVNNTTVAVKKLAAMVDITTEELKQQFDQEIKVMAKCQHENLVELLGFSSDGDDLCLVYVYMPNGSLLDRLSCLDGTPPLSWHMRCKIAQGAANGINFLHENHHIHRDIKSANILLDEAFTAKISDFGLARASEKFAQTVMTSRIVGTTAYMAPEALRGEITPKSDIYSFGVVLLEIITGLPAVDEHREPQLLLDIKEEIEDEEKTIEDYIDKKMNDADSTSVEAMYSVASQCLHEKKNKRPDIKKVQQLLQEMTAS
- Measurement Protocol: IRAK4 MSD degradation in OCI-LY10
- Format: cell-based
- Experimental Conditions: OCI-LY10 cells, 24 hrs, Meso Scale Discovery
Test Readout: DC50

O=C1CCC(Nc2ccc(N3CC(O)(CN4CCN(C[C@H]5CC[C@H](n6cc(NC(=O)c7cnn8ccc(N9C[C@H]%10C[C@@H]9CO%10)nc78)c(C(F)F)n6)CC5)CC4)C3)cc2)C(=O)N1 (stereo partly drawn) [I-72] :: 10 to 100 nM
CN1C(=O)CCC(n2c(=O)n(C)c3c([C@@H]4CCN(C[C@H]5CC[C@H](n6cc7cc(NC(=O)c8cncc(C(F)(F)F)n8)ccc7n6)CC5)C[C@H]4F)cccc32)C1=O (stereo partly drawn) [I-382] :: > 200 nM
O=C1CCC(Nc2ccc(N3CC(CO[C@@H]4CCN(C[C@H]5CC[C@H](n6cc(NC(=O)c7cnn8ccc(N9C[C@H]%10C[C@@H]9CO%10)nc78)c(C(F)F)n6)CC5)C[C@@H]4F)C3)cc2)C(=O)N1 (single isomer, unassigned) [I-73] :: 10 to 100 nM
